# TEST SYSTEM: FGFR1 (Homo sapiens, UniProt P11362, C488A/C584S)
# Construct: P1351.pET N6 BI-PTP FGFR A458-E765-X C488A, C584S; made in house; host or cells: E. coli (PTP1B co-expressed)
# Sequence (P11362 458-765 C488A/C584S): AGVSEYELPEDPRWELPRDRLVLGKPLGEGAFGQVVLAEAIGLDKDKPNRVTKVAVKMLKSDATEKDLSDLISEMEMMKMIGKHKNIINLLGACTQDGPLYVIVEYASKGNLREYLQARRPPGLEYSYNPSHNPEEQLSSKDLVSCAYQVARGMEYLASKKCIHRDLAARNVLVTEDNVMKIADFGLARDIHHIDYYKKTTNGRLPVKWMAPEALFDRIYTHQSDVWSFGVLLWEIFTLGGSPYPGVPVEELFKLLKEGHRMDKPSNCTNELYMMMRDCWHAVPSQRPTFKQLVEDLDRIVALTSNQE
# METHOD DESCRIPTION: AlphaScreen kinase assay, FGFR1
# Type: biochemical
# APPLIED CONDITIONS: read-out: IC50, activity toward kinase FGFR
pIC50: −log10 of the molar value.
Recorded pIC50 for the following compounds

Here are 3 compounds together with their reported answers.
- O=C(c1ccccc1F)c1c[nH]c2ncccc12: ≥ 5.00
- COc1ccc(C(=O)c2c[nH]c3ncc(-c4cccc(/C=C/C(=O)O)c4)cc23)c(Cl)c1: ≥ 5.00
- COc1ccc(-c2ccnc3[nH]cc(C(=O)c4cccc(O)c4)c23)cn1: ≥ 5.00

q: Please tell me: pIC50 of COc1cccc(C(=O)c2c[nH]c3ncc(Br)cc23)c1F , system FGFR1 (Homo sapiens, UniProt P11362, C488A/C584S)?
a: ≥ 5.00

q: Next compound: Cc1c(NS(=O)(=O)N(C)C)cccc1C(=O)c1c[nH]c2ncc(Br)cc12
a: ≥ 5.00

q: Next compound: O=C(c1cccc(Cl)c1Cl)c1c[nH]c2ncc(Br)cc12
a: ≥ 5.00

q: Next compound: COc1cccc(Cc2c[nH]c3ncc(-c4cccc(F)c4)cc23)c1F
a: ≥ 5.00

q: Next compound: COc1cccc(C(=O)c2c[nH]c3ncc(-c4cccs4)cc23)c1F
a: ≥ 5.00

q: Next compound: Cc1ccc(F)cc1C(=O)c1c[nH]c2ncc(-c3ccc(C(N)=O)cc3)cc12
a: ≥ 5.00

q: Next compound: O=C(c1cccc(Cl)c1Cl)c1c[nH]c2ncc(-c3cccnc3)cc12
a: ≥ 5.00

q: Next compound: COc1cccc(C(=O)c2c[nH]c3ncc(-c4cccc(Cl)c4)cc23)c1F
a: ≥ 5.00

q: Next compound: CC(=O)Nc1cccc(-c2cnc3[nH]cc(C(=O)c4cccc(O)c4F)c3c2)c1
a: ≥ 5.00

q: Next compound: NC(=O)c1cccc(-c2cnc3[nH]cc(C(=O)c4cccc(O)c4F)c3c2)c1
a: ≥ 5.00

q: Next compound: O=C(c1cccc(OC(F)F)c1)c1c[nH]c2ncc(-c3cccnc3)cc12
a: ≥ 5.00

---

Recorded IC50 for the following compounds
# TEST SYSTEM: Ret (Homo sapiens, UniProt P07949)
# Sequence (P07949 with tags, fused parts or gaps): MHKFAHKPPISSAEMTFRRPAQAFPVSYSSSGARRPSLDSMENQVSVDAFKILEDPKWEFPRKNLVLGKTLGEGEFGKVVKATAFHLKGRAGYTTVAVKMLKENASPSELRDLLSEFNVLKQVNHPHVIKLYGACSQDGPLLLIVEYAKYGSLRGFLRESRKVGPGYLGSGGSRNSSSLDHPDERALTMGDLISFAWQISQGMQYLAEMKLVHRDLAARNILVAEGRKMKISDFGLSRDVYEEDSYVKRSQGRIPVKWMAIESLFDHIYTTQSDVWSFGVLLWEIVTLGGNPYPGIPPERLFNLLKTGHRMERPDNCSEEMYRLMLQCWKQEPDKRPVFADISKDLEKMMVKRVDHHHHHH

Here are 3 compounds together with their reported answers.
* CS(=O)(=O)c1cccc(-c2cnc3[nH]cc(C(=O)c4c(F)ccc(F)c4F)c3c2)c1 | ≤ 10 µM
* NC(=O)c1ccc(-c2cnc3[nH]ccc3c2)cc1 | ≤ 10 µM
* O=C(c1cccc(O)c1F)c1c[nH]c2ncc(-c3cccs3)cc12 | ≤ 10 µM

q: Please report the recorded IC50 for O=C(c1cc(O)ccc1F)c1c[nH]c2ncc(-c3ccccc3)cc12 .
a: ≤ 10 µM

---

# TEST SYSTEM: Fak (Homo sapiens)
# Construct: P1358.pFastBacHtb FAK S411-Q686-X; His6 with pFastBacHTb leader (TEV site) (N)
# Sequence (Q05397 411-686): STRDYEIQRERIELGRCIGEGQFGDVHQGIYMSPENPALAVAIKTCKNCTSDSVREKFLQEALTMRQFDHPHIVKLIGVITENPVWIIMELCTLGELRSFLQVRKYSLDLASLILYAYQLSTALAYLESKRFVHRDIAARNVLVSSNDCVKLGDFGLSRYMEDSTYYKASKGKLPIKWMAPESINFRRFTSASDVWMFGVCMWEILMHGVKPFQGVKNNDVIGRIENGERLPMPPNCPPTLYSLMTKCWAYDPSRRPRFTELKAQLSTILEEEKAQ
# METHOD DESCRIPTION: AlphaScreen kinase assay, Fak
# APPLIED CONDITIONS: read-out: IC50, activity toward kinase Fak
pIC50: −log10 of the molar value.
OBSERVABLE: pIC50

Here are 3 molecules together with their reported answers.
• O=C(c1ccc(O)cc1Cl)c1c[nH]c2ncc(-c3cccs3)cc12 = ≥ 5.00
• CN(C)S(=O)(=O)Nc1ccc(F)c(C(=O)c2c[nH]c3ncc(-c4cccnc4)cc23)c1F = ≥ 5.00
• NC(=O)c1cccc(-c2cnc3[nH]cc(C(=O)c4ccccc4OCc4ccccc4)c3c2)c1 = ≥ 5.00

q: Please report the recorded pIC50 for O=S(=O)(NCc1c[nH]c2ncccc12)c1ccc(N2CCOCC2)nc1 .
a: ≥ 5.00

---

pIC50, Syk (Homo sapiens), per-entry values.
pIC50: −log10 of the molar value.

Here are 2 compounds together with their reported answers.
• O=C(c1cccc(O)c1F)c1c[nH]c2ncc(-c3cccs3)cc12 = ≥ 5.00
• O=C(c1cccc(O)c1)c1c[nH]c2ncc(-c3ccsc3)cc12 = ≥ 5.00

q: Please tell me: pIC50 of O=C(c1cccc(O)c1)c1c[nH]c2ncc(-c3cccs3)cc12 , system Syk (Homo sapiens)?
a: ≥ 5.00

---

# TEST SYSTEM: B-Raf V600E (Homo sapiens, UniProt P15056, V600E)
# Construct: P4254. pFastBacBD-CDC37 BRAF D437-K722-X, V600E; His6 with pFastBac HT leader (TEV site) (N); made in house; host or cells: Sf9 (baculovirus; chaperone CDC37 co-expressed)
# Sequence (P15056 with tags, fused parts or gaps V600E): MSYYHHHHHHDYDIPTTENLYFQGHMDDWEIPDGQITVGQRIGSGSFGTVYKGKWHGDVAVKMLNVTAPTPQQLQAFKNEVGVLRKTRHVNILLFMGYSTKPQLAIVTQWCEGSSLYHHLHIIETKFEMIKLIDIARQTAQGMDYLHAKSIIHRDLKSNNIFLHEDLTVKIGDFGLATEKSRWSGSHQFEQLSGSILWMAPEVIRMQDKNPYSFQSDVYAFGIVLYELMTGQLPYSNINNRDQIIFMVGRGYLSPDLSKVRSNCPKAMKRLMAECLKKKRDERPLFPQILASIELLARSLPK
# METHOD DESCRIPTION: AlphaScreen kinase assay, B-Raf V600E
# Format: biochemical
pIC50: −log10 of the molar value.
OBSERVABLE: pIC50

q: Please report the recorded pIC50 for COc1cccc(Cc2c[nH]c3ncc(-c4ccc(N)cc4)cc23)c1 [Compound P-0140] .
a: ≥ 5.00

---

Protein target, amino acids: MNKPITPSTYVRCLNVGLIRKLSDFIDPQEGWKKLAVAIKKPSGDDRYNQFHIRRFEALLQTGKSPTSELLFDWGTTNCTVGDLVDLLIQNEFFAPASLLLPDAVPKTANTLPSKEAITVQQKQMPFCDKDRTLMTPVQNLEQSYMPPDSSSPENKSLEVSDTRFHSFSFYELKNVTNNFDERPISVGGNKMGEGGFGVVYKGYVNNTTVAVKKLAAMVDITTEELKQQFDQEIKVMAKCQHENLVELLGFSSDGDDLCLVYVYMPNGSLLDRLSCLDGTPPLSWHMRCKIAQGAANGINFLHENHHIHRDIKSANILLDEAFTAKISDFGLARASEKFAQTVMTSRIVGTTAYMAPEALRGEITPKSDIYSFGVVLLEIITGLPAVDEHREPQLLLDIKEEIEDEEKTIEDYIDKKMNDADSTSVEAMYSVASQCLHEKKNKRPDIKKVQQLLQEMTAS
OBSERVABLE: IC50

* Nc1cccc(-c2cnc3[nH]cc(C(=O)c4cc(O)ccc4F)c3c2)c1 [Compound P-0002] | ≤ 10 µM

--- query ---
q: Please report the recorded IC50 for OCc1cccc(-c2c[nH]c3ncccc23)c1 [Compound P-0087] .
a: ≤ 10 µM

---

Recorded pIC50 for the following compounds
# TEST SYSTEM: B-Raf (Homo sapiens)
# Construct: purchased Upstate Biotechnology
# METHOD DESCRIPTION: AlphaScreen kinase assay, B-Raf
# Assay type: biochemical
# APPLIED CONDITIONS: read-out: IC50, activity toward kinase B-Raf
pIC50: −log10 of the molar value.

- O=C(Nc1cccc(C(=O)c2c[nH]c3ncc(-c4ccc(F)cc4)cc23)c1)Nc1ccc(C(F)(F)F)cc1Cl: ≥ 5.00
- CCCS(=O)(=O)Nc1ccc(F)c(Cc2c[nH]c3ncc(N4CCC(C)CC4)cc23)c1F: ≥ 5.00
- COCCOc1ccc(-c2cnc3[nH]cc(C(=O)c4c(F)ccc(NS(=O)(=O)c5ccc(C(F)(F)F)cc5)c4F)c3c2)cc1: ≥ 5.00
- COC(c1c(F)ccc(NS(=O)(=O)C(C)C)c1F)c1c[nH]c2ncc(Br)cc12 (stereo not shown): ≥ 5.00

q: Please report the recorded pIC50 for O=C(c1cc(O)ccc1F)c1c[nH]c2ncc(Br)cc12 .
a: ≥ 5.00

q: Next compound: CCc1cnc2[nH]cc(C(=O)c3c(F)ccc(NS(=O)(=O)c4ccc(C(F)(F)F)cc4)c3F)c2c1
a: ≥ 5.00

q: Next compound: COCCOc1cnc2[nH]cc(C(=O)c3c(F)ccc(NS(=O)(=O)c4ccc(C(F)(F)F)cc4)c3F)c2c1
a: ≥ 5.00

---

pIC50, Jnk1 (Homo sapiens, UniProt P45983), per-entry values.
pIC50: −log10 of the molar value.

Here are 3 compounds together with their reported answers.
• O=C(Nc1cccc(Cc2c[nH]c3ncc(-c4cccnc4)cc23)c1)NC1CCCC1 = ≥ 5.00
• O=C(Nc1cccc(C(=O)c2c[nH]c3ncccc23)c1)Nc1ccc(F)c(F)c1 = ≥ 5.00
• Cc1noc(NC(=O)Nc2cccc(C(=O)c3c[nH]c4ncc(Cl)cc34)c2)c1C = ≥ 5.00

q: Please tell me: pIC50 of CCCCNC(=O)n1ccc2c(C(=O)c3c[nH]c4ncc(-c5cccnc5)cc34)cccc21 , system Jnk1 (Homo sapiens, UniProt P45983)?
a: ≥ 5.00

---

# TEST SYSTEM: ALK (Homo sapiens)
# Sequence (Q9UM73 19-1620): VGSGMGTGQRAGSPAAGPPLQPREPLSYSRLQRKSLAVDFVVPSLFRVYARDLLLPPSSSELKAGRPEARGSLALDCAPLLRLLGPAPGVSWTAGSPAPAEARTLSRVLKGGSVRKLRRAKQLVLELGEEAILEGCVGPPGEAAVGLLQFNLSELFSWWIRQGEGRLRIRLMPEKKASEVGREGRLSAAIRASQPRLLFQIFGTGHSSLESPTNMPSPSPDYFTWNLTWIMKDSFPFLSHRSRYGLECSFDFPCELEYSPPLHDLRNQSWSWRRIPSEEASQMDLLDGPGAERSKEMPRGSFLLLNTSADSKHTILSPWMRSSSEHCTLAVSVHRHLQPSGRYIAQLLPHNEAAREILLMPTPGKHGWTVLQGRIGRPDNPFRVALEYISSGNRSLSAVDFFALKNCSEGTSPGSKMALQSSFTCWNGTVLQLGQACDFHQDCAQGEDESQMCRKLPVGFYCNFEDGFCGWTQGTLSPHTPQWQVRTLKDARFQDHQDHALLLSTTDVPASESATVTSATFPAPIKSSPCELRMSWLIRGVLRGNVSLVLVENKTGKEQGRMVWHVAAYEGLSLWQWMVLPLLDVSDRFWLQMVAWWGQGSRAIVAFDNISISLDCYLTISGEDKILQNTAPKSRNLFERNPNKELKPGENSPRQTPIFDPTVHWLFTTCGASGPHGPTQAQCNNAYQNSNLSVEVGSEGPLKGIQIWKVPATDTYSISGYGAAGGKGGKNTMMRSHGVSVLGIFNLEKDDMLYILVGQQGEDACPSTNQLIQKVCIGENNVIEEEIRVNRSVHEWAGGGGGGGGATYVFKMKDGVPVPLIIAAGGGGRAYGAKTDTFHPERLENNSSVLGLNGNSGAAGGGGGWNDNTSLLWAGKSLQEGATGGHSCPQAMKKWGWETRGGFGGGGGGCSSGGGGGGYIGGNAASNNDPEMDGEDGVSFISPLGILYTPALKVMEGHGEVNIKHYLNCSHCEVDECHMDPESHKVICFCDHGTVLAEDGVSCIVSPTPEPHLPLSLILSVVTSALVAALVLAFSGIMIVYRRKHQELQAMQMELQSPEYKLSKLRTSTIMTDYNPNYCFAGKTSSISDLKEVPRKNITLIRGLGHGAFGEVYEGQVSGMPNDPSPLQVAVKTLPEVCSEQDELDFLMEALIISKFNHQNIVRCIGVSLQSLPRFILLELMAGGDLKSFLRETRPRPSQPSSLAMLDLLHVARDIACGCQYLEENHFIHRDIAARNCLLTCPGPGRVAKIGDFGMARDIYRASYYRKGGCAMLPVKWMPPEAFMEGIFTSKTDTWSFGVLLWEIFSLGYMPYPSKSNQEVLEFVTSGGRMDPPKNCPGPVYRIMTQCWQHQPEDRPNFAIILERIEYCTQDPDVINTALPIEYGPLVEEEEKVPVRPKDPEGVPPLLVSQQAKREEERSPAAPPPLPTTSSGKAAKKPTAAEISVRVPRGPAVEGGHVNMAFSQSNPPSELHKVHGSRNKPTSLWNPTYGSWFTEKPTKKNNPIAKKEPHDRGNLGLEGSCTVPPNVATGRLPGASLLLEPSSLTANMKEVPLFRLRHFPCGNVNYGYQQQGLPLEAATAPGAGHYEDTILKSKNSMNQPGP
Recorded IC50 for the following compounds

• COc1cc(OC)cc(C(=O)c2c[nH]c3ncc(-c4cccc(NS(C)(=O)=O)c4)cc23)c1 = ≤ 10 µM

q: Please report the recorded IC50 for OCCOc1ccc(F)c(Cc2c[nH]c3ncc(-c4cccnc4)cc23)c1F .
a: ≤ 10 µM
